// endpoint pIC50 / system M-phase inducer phosphatase 1 (Homo sapiens, UniProt P30304)
pIC50: −log10 of the molar value.

List the reported pIC50 of each molecule below.
1. C=CCCCCc1ccc(C=C2N=C(c3ccc(C(=O)CCC=C)[nH]3)C=C2OC)[nH]1 [Acyclic analogue, 11]
2. COc1cc(-c2[nH]ccc2Cl)oc1C1=c2[nH]c3cc2[C@@H](C(C)C)[C@@H]1CCCCCCCC=3 [Roseophilin, 2]
3. COC1=CC(=O)N/C1=C\c1ccc(CCCC/C=C/CCCCC(=O)O)[nH]1 [Acyclic analogue, 18]
4. C=CCCCCc1ccc(/C=C2\N=C(c3ccc(CCCC=C)s3)C=C2OC)[nH]1 [Acyclic analogue, 15]
5. C=CC/C=C(/C)c1ccc(C2=N/C(=C\c3ccc(CCCCC=C)[nH]3)C(OC)=C2)[nH]1 [Acyclic analogue, 12]
6. COc1cc(-c2[nH]ccc2Cl)oc1C1=c2[nH]c3cc2[C@H](C(C)C)[C@H]1CCCCCCCC=3
7. C=CCCCCc1ccc(/C=C2\NC(=O)C=C2OC)[nH]1 [Acyclic analogue, 16]

Result ::
1: < 4.30; 2: 4.68; 3: < 4.30; 4: < 4.30; 5: < 4.30; 6: 4.55; 7: < 4.30
